The reported numbers originate from ChEMBL document CHEMBL1201862.

- System: K562
- assay protocol: NCI tumour cell line growth inhibition, 48 h
Calls of active or inactive are those of the source. No stated cut-off is given here; in the data, active = GI50 up to about 1.1 µM and inactive = higher.
Exercise: state measured GI50 for each of the molecules provided.

COc1ccc2nc3c([N+](=O)[O-])ccc4c3c(c2c1)N(CCCN(C)C)C(=S)N4CCCN(C)C | 1.77 µM (inactive)
CCCCN1C(=O)CC2[C@@H]3CCc4cc(OC)ccc4C3CC[C@]2(C)C1=O (stereo not given in full) | 7.93 µM (inactive)
O=C(CCCn1cnc([N+](=O)[O-])n1)NCCCn1ccnc1[N+](=O)[O-] | > 100 µM (inactive)

Batch request: GI50 for each of the following molecules.
1. CCC1(O)CC2CC(=O)OC2C1O (stereo not given)
2. CC(C)(C)C1=NC(=P(c2ccccc2)(c2ccccc2)c2ccccc2)C(=O)O1
3. COc1cc(O)ccc1C(=S)SC
4. NC(=O)C(c1ccccc1)N1OC2C(=O)N(c3ccccc3)C(=O)C2C1c1c2ccccc2c(Cl)c2ccccc12 (stereo not given)
5. CC(C)(C)/N=C\N1CCC(C(c2ccccc2)c2ccccc2)CC1

["> 100 µM (inactive)", "> 100 µM (inactive)", "52.8 µM (inactive)", "> 100 µM (inactive)", "35.1 µM (inactive)"]

Hey, can you go through the list below and give me GI50 for every item?
1. CC(CN(C)C)C(=O)c1ccccc1 (stereo not given)
2. COc1ccc(N2CC(=O)N(C(=O)COc3ccc(OCC(=O)N4C(=O)CN(c5ccc(OC)cc5)C4=S)cc3)C2=S)cc1

1: 5.02 µM (inactive); 2: 38.8 µM (inactive)

====

- System: SF-268
- assay protocol: NCI tumour cell line growth inhibition, 48 h
Active and inactive are the calls of the source. Rule as the data show it: active = GI50 up to about 1.1 µM and inactive = higher.
Permitted responses: active, inactive

Here are 4 compounds together with their reported answers.
COc1ccc([C@@H]2CC(=O)NCCCNCCCCNCCCN2)cc1 | inactive
COC(=O)c1ccc(-n2c(C)nc(=O)c(-c3ccccc3)c2C)cc1 | inactive
O/N=C1/C(=C/c2ccc3c(c2)OCO3)CCCC1C(NO)c1ccc2c(c1)OCO2 (centres undefined) | inactive
O=C(c1ccccc1)c1cn(/N=C\c2ccccc2)c(=O)nc1-c1ccccc1 | inactive

For CC(=O)OC1CC2C(C)(C)OC(=O)CC(OC(C)=O)[C@]2(C)C2CCC3(C)C(=CCC3[C@H]3COC(=O)C3)[C@]12C (some centres undefined) , which call appears in the assay record?
inactive

Query: recorded result category for O=C(O)Cn1ccc(=O)c2cc([N+](=O)[O-])ccc21 in this test
inactive

# lookup: test call for CN(C)CCN(/C(=N/c1ccccc1)N1CCCC1)c1ccccc1
inactive

Please let me know the test result on file for O=C(CC(NC(=O)C(F)(F)F)C(=O)O)OCc1ccccc1 (centres undefined) .
inactive

Call for entry O=C1c2c(O)cccc2C(C(=O)CCCCCC(=O)C2c3cccc(O)c3C(=O)c3c(O)cccc32)c2cccc(O)c21 :
active

Short answer needed: outcome of this test for CC(=O)c1ccc(O)c(CN(C2CCCCC2)C2CCCCC2)c1O ?
inactive

Record lookup: outcome of this test for COC(=O)C1OC(O[C@H]2CC[C@]3(C)[C@H]4CC=C5[C@@H]6CC(C)(C)CC[C@]6(C(=O)OC)CC[C@@]5(C)[C@]4(C)CC[C@H]3C2(C)C)C(O)C(O)C1O (some centres undefined) ?
inactive

Which outcome was assigned to COCN1C(=O)[C@@H]2CCCN2C(=O)c2cc(Cl)ccc21 in this test?
inactive

What did this assay record as the result for C1=CN2C[n+]3cccc(OCc4ccccc4)c3N=C2C(OCc2ccccc2)=C1 ?
inactive

Please indicate how the test categorized O=C(c1cccnc1)N1N=C(c2ccc(Cl)cc2)CC1(O)c1cc(F)c(Cl)cc1Cl (centres undefined) .
inactive

Could you kindly confirm the outcome this assay logged for O=C1Nc2ccc(S(=O)(=O)N(CCO)CCO)cc2/C1=C1/Nc2ccccc2C1=O ?
inactive

Look up the recorded call for Nc1c(Cl)c([N+](=O)[O-])cc2c1OCCCCO2 in this test.
inactive

State the result this test recorded for CC1c2[nH]c3ccccc3c2CCN1O (centres undefined) .
inactive

What was the test verdict on CC(NC(NC(C)C12CC3CC(CC(C3)C1)C2)=C(C(Cl)=C(Cl)Cl)[N+](=O)[O-])C12CC3CC(CC(C3)C1)C2 (centres undefined) ?
inactive

What was the test verdict on COc1cc2c(cc1OCCCCOc1cc3c(cc1OC)C(=O)N1CCC[C@H]1C(=O)N3)N=C[C@@H]1CCCN1C2=O ?
inactive

====

- Tested on: HCT-15
Kindly state GI50 for each of the entries shown.

O=C1N(CN2CCOCC2)CN(CN2CCOCC2)C(=O)N1Cc1ccc(CN2C(=O)N(CN3CCOCC3)CN(CN3CCOCC3)C2=O)cc1 | 31.2 µM

Need GI50 for each of these molecules.
1. Cc1ccc(C2=Nc3c(c(C)nn3-c3ccccc3)N=C(C(=O)O)C2)cc1
2. O=C(/C=C/c1ccc(/C=C/C(=O)c2ccc(O)cc2)cc1)c1ccc(O)cc1

["> 10 µM", "> 100 µM"]

====

- Test system: NCI-H522
- assay protocol: NCI tumour cell line growth inhibition, 48 h
Calls of active or inactive are those of the source. Cut-off read from the data, not from the text of the source: active = GI50 up to about 1.1 µM and inactive = higher.
Hi there, I'd appreciate the recorded GI50 for every entry that follows.

Please review the following examples before continuing.
COc1ccc2nc3ccc(OC)cc3c(SCC3CO3)c2c1 (stereo unspecified) | 13 µM (inactive)
Cc1ccc(/N=N/c2c(-c3ccccc3)nn(C(=O)CC(=O)Nc3ccc(Cl)cc3)c2-c2ccccc2)cc1 | 37.8 µM (inactive)
CC(NC(NC(C)C12CC3CC(CC(C3)C1)C2)=C(C(Cl)=C(Cl)Cl)[N+](=O)[O-])C12CC3CC(CC(C3)C1)C2 (stereo unspecified) | 7.11 µM (inactive)
CCc1ncnc2cc(OCC3CO3)c(OC)cc12 (stereo unspecified) | 2.31 µM (inactive)
CSC(=S)N/N=C/c1ccccc1 | 52.6 µM (inactive)
O=C1C=C[C@@]23CC1C(O)C[C@H]2C=Cc1ccccc13 (stereo partly specified) | > 100 µM (inactive)
CCN1CCc2sc3nc(S)n(C)c(=O)c3c2C1 | > 100 µM (inactive)
CN1CCC/C1=C1/C(=O)N(c2ccccc2)N=C1c1ccc[nH]1 | > 100 µM (inactive)
C=C1C(=O)OC2CC(C)C3C4OC4C(O)C3(C)C(O)C12 (stereo unspecified) | 9.42 µM (inactive)
C=C(C)CNC(=S)N(N)c1ccc(OC)cc1 | 56.1 µM (inactive)

Okay, now this compound:
Quick one: give measured GI50 for Cc1cc(N(CCC#N)CCC#N)ccc1/N=N/c1ccc(Br)cc1
16.6 µM (inactive)

====

- Test system: K562
- assay protocol: NCI tumour cell line growth inhibition, 48 h
Active and inactive are the calls of the source. Rule as the data show it: active = GI50 up to about 1.1 µM and inactive = higher.
# valid calls are active, inactive; nothing else

Field: example entries. Status: answers known.
C/C(=N\N=C(\N)SB(F)F)c1ccc2ccccc2c1 | inactive
COc1ccc(/C=C/c2cc(O)cc(OC)c2)cc1 | inactive
O=C1c2ccccc2-n2c1nc1ccc(Cl)cc1c2=O | inactive
[N-]=[N+]=Nc1cc(=O)n2c3c(cccc13)CCC2 | inactive
CCN(CC)CCNc1ccc2ncn3c4ccc(O)cc4c(=O)c1c23 | active

Outcome logged for C=C(C)CNC(=S)N(N)c1ccc(OC)cc1 in this assay:
inactive

For this molecule, state the assay outcome: CSCCC(N)C(=O)NCCNc1ccc(NCCNC(=O)C(N)CCSC)c2c1C(=O)c1ccccc1C2=O (configuration not stated)
inactive

How did this test come out for COc1ccc2nc3ccc(OC)cc3c(SCC3CO3)c2c1 (configuration not stated) ?
inactive

Hello, I am checking results. What call was entered for CCOc1ccc(/N=C\c2ccc3cc(C)ccc3n2)cc1 ?
inactive

Fill in: this test's call for Nn1c(Nc2ccc(S(N)(=O)=O)cc2)nnc(/C=C/c2c(O)ccc3ccccc23)c1=O is ___
inactive

In this assay, the call recorded for O=C(O)Cn1ccc(=O)c2cc([N+](=O)[O-])ccc21 was what?
inactive

Tell me the recorded outcome of this test for COC(=O)c1c(O)c(C#N)c2[nH]c3ccccc3n2c1=O .
inactive

Could you check what this test reported for CC(=O)N/C(=C\c1ccc(/C=C(\NC(C)=O)C2=NC3C(=O)c4ccccc4C(=O)C3N2)cc1)C1=NC2C(=O)c3ccccc3C(=O)C2N1 (configuration not stated) ?
inactive

For this molecule, state the assay outcome: Cc1ccc(C2=Nc3c(c(C)nn3-c3ccccc3)N=C(C(=O)O)C2)cc1
inactive

Can you look up the reported call for C[C@H]1CC(=O)C2=CCCC3(SCCCS3)[C@@H]2[C@H]1CO for me?
inactive

Look up the recorded call for COc1cc(NS(C)(=O)=O)ccc1NCc1c[nH]c2ccc3ncccc3c12 in this test.
inactive

Outcome logged for CC(NC(NC(C)C12CC3CC(CC(C3)C1)C2)=C(C(Cl)=C(Cl)Cl)[N+](=O)[O-])C12CC3CC(CC(C3)C1)C2 (configuration not stated) in this assay:
inactive

Please share the test call associated with O=C1OC(=O)C2C1C(c1ccccc1[N+](=O)[O-])C=C(c1ccco1)N2c1ccncc1 (configuration not stated) .
inactive
